Tested on: DLD-1
TEST NAME: cells
Format: cell-based
SETTINGS: basal
Reported IC50/EC50, Basal_Viability ATP DLD-1 (assay number 23) by item:

# MOLECULAR STRING, RESULT
data = [
    ("CC1=C(/C=C/C(C)=C/C=C/C(C)=C/C(=O)Nc2ccc(O)cc2)C(C)(C)CCC1", "9.4899 µM"),
    ("OCCN1CCN(CC/C=C2/c3ccccc3Sc3ccc(C(F)(F)F)cc32)CC1", "1.467 µM"),
    ("Cc1c(NC(=O)c2cccnc2)c(=O)n(-c2ccccc2)n1C", "> 20 µM"),
]

What value of IC50/EC50, Basal_Viability ATP DLD-1 (assay number 23) on DLD-1 does Cn1cnc([N+](=O)[O-])c1Sc1ncnc2nc[nH]c12 have?
0.3635 µM

What value of IC50/EC50, Basal_Viability ATP DLD-1 (assay number 23) on DLD-1 does CCCCCCOc1ccccc1C(N)=O have?
8.6657 µM

* * *

Test system: HT-29
TEST NAME: cells
Type: cell-based
SETTINGS: read-out: Basal_Viability ATP HT-29 summarized IC50
MEASUREMENT LABEL: pIC50
By convention, pIC50 is the negative base-10 log of a molar concentration.

Which pIC50 value belongs to O=C1C(I)=CC(=C(c2cc(I)c(O)c(I)c2)c2ccccc2C(=O)O)C=C1I ?
5.24

* * *

Tested on: HeLa cells
TEST NAME: cells
Format: cell-based
SETTINGS: Homo sapiens; S2 Table; HeLa; 20 = no response at highest concentration; read-out: CellCycle G2/M
MEASUREMENT LABEL: EC50 (nM)
Give the value in nM but do not write nM after it.

What value of EC50 on HeLa cells does COc1cc([C@@H]2c3cc4c(cc3[C@H](O)[C@H]3COC(=O)[C@H]23)OCO4)cc(OC)c1OC [Podofilox] have?
7.7

* * *

Reported IC50 by item:
Test system: HCT116
TEST NAME: cells
Assay type: cell-based
SETTINGS: read-out: Basal_Viability ATP HCT116 summarized IC50
Give the value in µM but do not write µM after it.

# MOLECULAR STRING, RECORDED NUMBER
records = [
    ("O=C1C(I)=CC(=C(c2cc(I)c(O)c(I)c2)c2ccccc2C(=O)O)C=C1I", 0.384),
]

Please find the next compound below.
Which IC50 value belongs to O=C(Nc1ccc([N+](=O)[O-])cc1Cl)c1cc(Cl)ccc1O ?
0.00144

* * *

Tested on: SW480
TEST NAME: cells
Type: cell-based
SETTINGS: assay number 24; basal
MEASUREMENT LABEL: Basal_Viability ATP SW480 IC50/EC50

Look over these answered cases.
# COMPOUND, RESULT
records = [
    ("O=C(NC1CCN(CCc2c[nH]c3ccccc23)CC1)c1ccccc1", "> 20 µM"),
    ("c1cnc2cc3c(cc2n1)C1CNCC3C1", "> 6.6667 µM"),
    ("CCN(CCO)CCCC(C)Nc1ccnc2cc(Cl)ccc12.O=S(=O)(O)O (centres unmarked)", "> 20 µM"),
]

Which Basal_Viability ATP SW480 IC50/EC50 value belongs to CCCn1cnc2c1c(=O)n(CCCCC(C)=O)c(=O)n2C ?
> 20 µM

Which Basal_Viability ATP SW480 IC50/EC50 value belongs to [N-]=[N+]=CC(=O)OC[C@H](N)C(=O)O ?
> 20 µM

Which Basal_Viability ATP SW480 IC50/EC50 value belongs to CC(C(=O)O)c1cccc(C(=O)c2ccccc2)c1 (centres unmarked) ?
10.2684 µM

Which Basal_Viability ATP SW480 IC50/EC50 value belongs to CCN(CC)CCOc1ccc(C(O)(Cc2ccc(Cl)cc2)c2ccc(C)cc2)cc1 (centres unmarked) ?
3.7592 µM
